Read-out: NAD(P)H dehydrogenase [quinone] 1 (NQO1), NQO1 (gene 1728)
EXPERIMENT: LTEA_HepaRG_NQO1: Life Technologies and Expression Analysis (LTEA) Assay for NAD(P)H dehydrogenase [quinone] 1 (NQO1) using HepaRG (AID 2283526)
CONDITION DESCRIPTION: mRNA level, 48 h; actives raise or lower the signal
Active and inactive are the calls of the source. Rule for the calls: active = hit-call score of the fitted dose curve at least 0.9, where 1 is the maximum; inactive = score below 0.9.
Outcomes: T = active, F = inactive

[
  {
    "MOLECULE": "C=C(C)CN(CC)c1c([N+](=O)[O-])cc(C(F)(F)F)cc1[N+](=O)[O-]",
    "ANSWER LABEL": "F"
  },
  {
    "MOLECULE": "COc1cc(Cl)c(OC)cc1Cl",
    "ANSWER LABEL": "F"
  },
  {
    "MOLECULE": "CC(C)N1C(=O)c2ccccc2NS1(=O)=O",
    "ANSWER LABEL": "F"
  },
  {
    "MOLECULE": "COCc1cnc(C2=NC(C)(C(C)C)C(=O)N2)c(C(=O)O)c1 (configuration not stated)",
    "ANSWER LABEL": "F"
  },
  {
    "MOLECULE": "O=C1C2CC=CCC2C(=O)N1SC(Cl)(Cl)Cl (configuration not stated)",
    "ANSWER LABEL": "F"
  },
  {
    "MOLECULE": "OC(c1ccc(Cl)cc1)(c1ccc(Cl)cc1)C(Cl)(Cl)Cl",
    "ANSWER LABEL": "T"
  },
  {
    "MOLECULE": "CCCN(CC)CC1COC2(CCC(C(C)(C)C)CC2)O1 (configuration not stated)",
    "ANSWER LABEL": "F"
  },
  {
    "MOLECULE": "CC(C)Nc1nc(Cl)nc(NC(C)C)n1",
    "ANSWER LABEL": "F"
  },
  {
    "MOLECULE": "CCSC(=O)N1CCCCCC1",
    "ANSWER LABEL": "F"
  },
  {
    "MOLECULE": "N#Cc1c[nH]cc1-c1cccc2c1OC(F)(F)O2",
    "ANSWER LABEL": "F"
  },
  {
    "MOLECULE": "CCN(CC)C(=O)C(C)Oc1cccc2ccccc12 (configuration not stated)",
    "ANSWER LABEL": "F"
  },
  {
    "MOLECULE": "CCOc1cc(C(C)(C)C)ccc1C1COC(c2c(F)cccc2F)=N1 (configuration not stated)",
    "ANSWER LABEL": "F"
  }
]

These data points were gathered from PubChem BioAssay (EPA / NIEHS).
